Each entry below lists one item and its recorded growth inhibition value.
# assayName: NCI Yeast Anticancer Drug Screen. Data for the cln2 rad14 strain (AID 165);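 further: 0% = growth equal to vehicle treated cultures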
# testParameters: S. cerevisiae cln2 rad14 strain, at 50.0 µM, active compounds read high
The panel holds about 79,000 compounds, 15% with a hit somewhere; the sample as a whole holds those more often.
parameter: growth inhibition (%)

1) S=C(S)NN1CCOCC1; 87.5
2) CC1(Cl)CC(O)C2(CC1Br)C1(C)OC1C1OC1(Br)C2(C)C (stereo not given); 42.5
3) CCOC(=O)c1cnc2c(C(F)(F)F)cccc2c1N=[N+]=[N-]; 84.7
4) COc1ccc2nc3c([N+](=O)[O-])ccc(NCCN(C)C)c3c(NCCN(C)C)c2c1; 62.4
5) OCC1OC(OCC(O)C(O)C(O)C(/C=N/Nc2ccccc2)=N/Nc2ccccc2)C(O)C(O)C1O (stereo not given); 99.3
6) FC(F)(F)c1cc(NC(=S)N2c3ccccc3-n3cccc3C2c2cccnc2)cc(C(F)(F)F)c1 (stereo not given); 43.6
7) O=C1C(Nc2ccccc2)=C(Oc2ccccc2)C(=O)c2ccccc21; 5.25
8) COC(=O)CCNc1c2ccccc2nc2cccc([N+](=O)[O-])c12; 89.4
9) COP(=O)(OC)/C(=C\C1=CN(C(c2ccccc2)(c2ccccc2)c2ccccc2)CN1)NC=O; 95.2
10) CCOc1ccc2c(c1)c(CC(=O)O)cn2C; 18.8

* * *

# assayName: NCI Yeast Anticancer Drug Screen. Data for the rad50EPP+ strain (AID 151);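 further: 0% = growth of vehicle-treated control cultures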
# testParameters: S. cerevisiae rad50 mutant strain, at 11.0 µM
Compounds without any hit were thinned out: in the full panel of roughly 79,000, 15% have a hit. Calls of active or inactive are those of the source. Rule as the data show it: active = growth inhibition above about 70%; inactive = the rest.
Classes used: active, inactive

1) CCN(CC)CC[n+]1ccc2c(C)c3[nH]c4ccc(O)cc4c3c(C)c2c1; inactive
2) Cc1ccc(-n2cc(-c3ccc(Cl)cc3)c(C#N)c2N)cc1; inactive
3) CC1(C)C(=O)OC(n2cc(F)c(=O)[nH]c2=O)C1=O (stereo unspecified); inactive
4) CCCCCCCCNC(=O)C1=C(C)NC(C)=C(C(=O)NCCCCCCCC)C1; inactive
5) C[C@@H]1C[C@H]2[C@@H]3CCC4=CC(=O)C=C[C@]4(C)[C@@]3(Cl)[C@@H](Cl)C[C@]2(C)[C@@]1(O)C(=O)COP(=O)(O)O; inactive
6) NC(N)=N/N=C\c1c2ccccc2cc2ccccc12; inactive
7) CCCCCCCCCCC1CCC(=O)O1 (stereo unspecified); inactive
8) C=C(CN(C)C)C(=O)c1cc(C)ccc1C; inactive
9) Cc1ccc(NC(=O)/C(Cl)=C(\Cl)C(=O)O)cc1C; active
10) CC(CC(C)(C)[N+](C)(C)C)[N+](C)(C)C (stereo unspecified); inactive
11) COc1ccc(C2c3cc4c(cc3OC(C)(O)C2C)OCO4)c(OC)c1 (stereo unspecified); inactive

* * *

# assayName: NCI Yeast Anticancer Drug Screen. Data for the rad50EPP+ strain (AID 151);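 further: 0% = growth of vehicle-treated control cultures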
# testParameters: S. cerevisiae rad50 mutant strain, at 3.7 µM, active compounds read high
This is part of a sample that, as a whole, favours compounds with a hit. Of some 79,000 tested, about 15% had one in any assay. Active and inactive are the calls of the source. No stated cut-off is given here; in the data, active means growth inhibition above about 70%; inactive means the rest.
parameter: growth inhibition

1) CC(C)/C(Cl)=N\OC(=O)Nc1ccc(F)cc1; 11% (inactive)
2) CNC(=O)OCc1c(COC(=O)NC)c(-c2ccc(-c3ccccc3)cc2)n(C)c1C; -31% (inactive)
3) C[CH2][Sn]([CH2]C)([O]C(=O)C(OC(C)=O)c1ccccc1)[O]C(=O)C(OC(C)=O)c1ccccc1 (stereo not given); 2% (inactive)
4) CCCCCCCCCCCCCCCCCCNC; 10% (inactive)
5) S=C(Nc1ccc(Cl)c(Cl)c1)SCc1ccc2c(c1)OCO2; 84% (active)

* * *

growth inhibition values for the compounds below.
# assayName: NCI Yeast Anticancer Drug Screen. Data for the mlh1 rad18 strain (AID 175)
# testParameters: S. cerevisiae mlh1 rad18 strain growth inhibition; at 5.0 µM (retest, dose inferred, filed as 0.5); active compounds read high
The panel holds about 79,000 compounds, 15% with a hit somewhere; the sample as a whole holds those more often.
parameter: growth inhibition (%)

1) COc1cc(C2c3cc4c(cc3OC(Nc3ccccc3)C2C)OCO4)cc(OC)c1O (configuration not stated); -1
2) COc1ccc(-c2cn(-c3ccc(I)cc3)c3ncnc(N)c23)cc1; 4
3) CCC#CCCCOC(=O)c1cc([N+](=O)[O-])cc([N+](=O)[O-])c1; 13
4) O=C1C2C(C(=O)N1c1ccc(OCc3ccccc3)cc1)C1c3ccccc3C2C2CCCCN21 (configuration not stated); -6
5) CCCCCCCCCC/C=C\C(=O)O; 37
6) c1ccc2c(c1)c1ncccc1c1nccnc21; -97
7) O=C(OCC=C1CCCC1)c1cc([N+](=O)[O-])cc([N+](=O)[O-])c1; 7
8) O=[N+]([O-])c1ccc(=S)[nH]c1; 51
9) Cn1c(N)nc(-c2ccc(Cl)cc2)c1SSc1c(-c2ccc(Cl)cc2)nc(N)n1C; -5
10) CCC(=O)Oc1c(Cl)cc(Cl)c2ccccc12; -10
11) CN(C)c1ccc(Sc2ccc3nc(N)nc(N)c3c2)cc1; 34
12) S=C(S)NN1CCOCC1; 94

* * *

# assayName: NCI Yeast Anticancer Drug Screen. Data for the rad14 strain (AID 159);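 further: 0% = growth of vehicle-treated control cultures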
# testParameters: S. cerevisiae rad14 strain growth inhibition; at 100.0 µM
About 79,000 compounds went through this panel and 15% of them were active in at least one assay; those are over-represented in the sample as a whole. Activity calls are given as the source filed them. Cut-off read from the data, not from the text of the source: active = growth inhibition above about 70%; inactive = the rest.
Classes used: label 1 = active, label 0 = inactive

1. COc1ccc(N=C2C(=O)Nc3ccc(Br)cc32)cc1; label 0
2. Cc1cc(S(=O)(=O)/N=C(/NN)NNc2cccc(C(F)(F)F)n2)c(S)cc1Cl; label 0
3. CCc1ccc(NS(=O)(=O)c2ccccc2)c([N+](=O)[O-])c1; label 1
4. CC(=O)OCC(=O)C1(O)CCC2C3CCC4CCCCC4(C)C3CCC21C (stereo unspecified); label 1
5. CN=C(N)N/N=C/c1ccc2c(c1)Cc1ccccc1-2; label 1
6. O=S(=O)(CCCl)c1ccccc1Cl; label 1
7. CC(C)/C(Cl)=N\OC(=O)Nc1ccc(F)cc1; label 0
8. Cc1ccc2ccc(O)cc2c1; label 0
9. COc1ccc2nc3cccc([N+](=O)[O-])c3c(NCCN(CCO)CCO)c2c1; label 1
10. C[C@@H]1C[C@H]2[C@@H]3CCC4=CC(=O)C=C[C@]4(C)[C@@]3(Cl)[C@@H](Cl)C[C@]2(C)[C@@]1(O)C(=O)COP(=O)(O)O; label 0
11. O=C1C=CC(=Nc2ccc3c(c2)Cc2cc(NC(=O)C(F)(F)F)ccc2-3)O1; label 1
12. CN(C)CCOc1ccc2c(c1)C/C(=C/c1ncc([N+](=O)[O-])n1C)C2=O; label 1
13. Cc1ccc(NN(NC(=O)OC(C)C)C(=O)OC(C)C)cc1; label 0
14. C/C(=N\NC(=S)N1CCCCC1)c1cccc(C)n1; label 1
15. NCCNc1ccc(NCCN)c2c1C(=O)c1c(O)ccc(O)c1C2=O; label 0
16. O=C(NC(Nc1ccc(F)c(Cl)c1)(C(F)(F)F)C(F)(F)F)C(C(F)(F)F)C(F)(F)F; label 1
17. CCCCCCCCCCCCCCCCCCOCC(O)COP(=O)(O)OCC1OC(n2cc(F)c(=O)[nH]c2=O)CC1O (stereo unspecified); label 1
18. CCOC(=O)C1=C(C(=O)c2ccccc2)C(c2ccccc2[N+](=O)[O-])C(C(=O)c2ccccc2)=C(C(=O)OCC)N1; label 0
19. CN1Cc2ccccc2/C=C\c2ccccc21; label 0
20. CC(=O)[O][Bi]([c]1ccccc1)[c]1ccccc1; label 1
21. O=C1C2C(C(=O)N1c1ccc(OCc3ccccc3)cc1)C1c3ccccc3C2C2CCCCN21 (stereo unspecified); label 1

* * *

Here the recorded growth inhibition is given for each entry.
# assayName: NCI Yeast Anticancer Drug Screen. Data for the mlh1 rad18 strain (AID 175)
# testParameters: S. cerevisiae mlh1 rad18 strain growth inhibition; at 50.0 µM; active compounds read high
The panel holds about 79,000 compounds, 15% with a hit somewhere; the sample as a whole holds those more often.
parameter: growth inhibition (%)

1) CCN(CC)CC(O)c1ccc2ccc3ccccc3c2c1 (stereo not drawn); 51.1
2) CCC/C(Cl)=N\OC(=O)Nc1cccc(C(F)(F)F)c1; 83.7
3) CC(C)[N+]([O-])(CCCNc1c2ccccc2nc2cccc([N+](=O)[O-])c12)C(C)C; 95.2
4) Cc1cc(S(=O)(=O)/N=C(/NN)NNc2cccc(C(F)(F)F)n2)c(S)cc1Cl; 19.6
5) Cc1ccc(N)c(S)c1; 92.2
6) CN(C)c1nc2sc3c(c2c(=O)o1)CCCC3; 50.6
7) CN(C)C[C@H]1CC[C@@H](CN(C)C)C1=O; 75
8) Cc1ccc(S(=O)(=O)NCCSS(=O)(=O)c2ccc(C)cc2)cc1; 88.7
9) CCOC(=O)[C@H]1Nc2ccccc2C2c3ccccc3CC21 (stereo partly drawn); 87.8
10) N#CN1C2CCC1CC(=O)C2; 62.1
11) O=c1c2ccccc2ncn1COCc1ccccc1; -22.1
12) COc1ccccc1N=NC(C(=O)c1ccccc1)C(=O)c1ccccc1; 92.5
13) CCCCCCCCCCNC(=O)OCC; 95
